Test system: S. aureus ATCC 25923
ASSAY_EXPLANATION: Quantitative antimicrobial activity, serial binary microdilution (MIC, IC50)
Type: cell-based
REPORTED_CONDITIONS: Staphylococcus aureus, ATCC25923; S. aureus ATCC 25923; 24 h, 37 °C; DMSO control 2.5
Recorded measurements of MIC, one per entry
Dear colleague, please return just the value in µg/mL, with no unit written.

Example entries begin here.
SMILES_DATA: Cc1nc2ccccc2c(=O)n1CC(=O)N/N=C/c1cc(Br)cc(Br)c1O
MIC, µg/mL: 312

SMILES_DATA: COc1ccc(/C=N/NC(=O)Cn2c(C)nc3ccccc3c2=O)c(O)c1
MIC, µg/mL: 2500

SMILES_DATA: COc1cccc(/C=N/NC(=O)Cn2c(C)nc3ccccc3c2=O)c1O
MIC, µg/mL: 2500

# lookup: S. aureus ATCC 25923 MIC, key = `Cc1nc2ccccc2c(=O)n1CC(=O)NN` 2500

# lookup: S. aureus ATCC 25923 MIC, key = `Cc1nc2ccccc2c(=O)n1CC(=O)N/N=C/c1cc(Br)ccc1O` 1250

# lookup: S. aureus ATCC 25923 MIC, key = `COc1cc(/C=N/NC(=O)Cn2c(C)nc3ccccc3c2=O)cc([N+](=O)[O-])c1O` 2500

# lookup: S. aureus ATCC 25923 MIC, key = `COc1ccc(O)c(/C=N/NC(=O)Cn2c(C)nc3ccccc3c2=O)c1` 1250
